Entry source: patent US6093738A

Listing: t1/2 at pH = 7.0 of selected molecules
experiment: Reaction of 1,2,4-thiadiazolo[4,5-a]benzimidazole derivative with 2-mercaptoethanol, determination of t1/2 values; settings: compound 5×10^-3 M, 2-mercaptoethanol 1.15×10^-2 M, methanol, R.T., HPLC; 5000 µM

Smiles input | t1/2 at pH = 7.0, h
c1ccc2c(c1)nc1snc(CN3CCOCC3)n12 | 98
c1ccc2c(c1)nc1snc(N3CCOCC3)n12 | 2.4
Cc1nsc2nc3ccccc3n12 | 59
c1ccc(-c2nsc3nc4ccccc4n23)nc1 | 134
CC(=O)c1nsc2nc3ccccc3n12 | 110
CN(C)c1nsc2nc3ccccc3n12 | 1.5
c1ccc(-c2nsc3nc4ccccc4n23)cc1 | 45
CN1CCN(c2nsc3nc4ccccc4n23)CC1 | 6.7
COc1nsc2nc3ccccc3n12 | 0.31
